Assay: in vitro
Format: cell-based
Conditions: human, neonatal fibroblasts (HDFn cells)
Where no end group is shown, it is not given here.
Assignment: determine reported viability at 24 h, 100 µM for the given substances.
Answers are plain numbers, in %.

See these solved cases before continuing.
substance="GLLKKLLKKLLKKL-NH2 [GL, G(LLKK)3 L-NH2]" numeric_readout=80
substance="GIIKKIIKKIIKKIIKKI-NH2 [Helix G4, G(IIKK)4 I-NH2]" numeric_readout=73
substance="GKIKKIIKKIIKII-NH2 [GKI, GKI(KKII)2 KII-NH2]" numeric_readout=69

Reported viability at 24 h, 100 µM ( GIKKKIIKKIIKII-NH2 [GIK, GIK(KKII)2 KII-NH2] ) = 85
